Hey, just so you know, these numbers are from patent US20150203579A1.

Target: T1, recombinant human PD-1 dimer expressed with a C-terminal mouse IgG2a Fc tag (human)
T1 construct: also called hPD-1-mFc
T1 sequence (chain, as listed by the source limits assumed): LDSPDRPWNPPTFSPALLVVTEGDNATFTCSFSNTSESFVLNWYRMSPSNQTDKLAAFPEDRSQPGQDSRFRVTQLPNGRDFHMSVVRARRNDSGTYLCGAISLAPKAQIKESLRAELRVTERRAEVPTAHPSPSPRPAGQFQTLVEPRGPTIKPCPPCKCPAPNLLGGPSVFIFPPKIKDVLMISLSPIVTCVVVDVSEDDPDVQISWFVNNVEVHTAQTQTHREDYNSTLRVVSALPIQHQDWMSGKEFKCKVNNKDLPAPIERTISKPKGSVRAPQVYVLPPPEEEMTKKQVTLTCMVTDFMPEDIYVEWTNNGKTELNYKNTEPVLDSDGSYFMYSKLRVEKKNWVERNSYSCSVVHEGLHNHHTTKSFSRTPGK
Test: BLI Octet: 100 nM hPD-1-mFc + 500 nM mAb to captured hPD-L1-hFc
recorded_metric: % Blocking (%)
// return numeric value only (unit: %, not printed)

>  <binder>
H2aM7795N (antibody, V domains shown, human variable regions, mouse IgG2a Fc; also called H2M7795N) VH: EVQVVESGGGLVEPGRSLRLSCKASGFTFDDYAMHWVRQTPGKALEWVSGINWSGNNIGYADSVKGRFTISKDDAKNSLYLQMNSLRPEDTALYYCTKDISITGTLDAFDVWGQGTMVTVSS VL: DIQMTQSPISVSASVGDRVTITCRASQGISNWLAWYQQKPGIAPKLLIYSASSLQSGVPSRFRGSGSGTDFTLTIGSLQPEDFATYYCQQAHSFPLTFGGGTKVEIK

>  <recorded_metric>
% Blocking

>  <unit_spec>
%

>  <recorded_result>
114

$$$$
>  <binder>
H1M7789N (antibody, V domains shown, human variable regions, mouse IgG1 Fc) VH: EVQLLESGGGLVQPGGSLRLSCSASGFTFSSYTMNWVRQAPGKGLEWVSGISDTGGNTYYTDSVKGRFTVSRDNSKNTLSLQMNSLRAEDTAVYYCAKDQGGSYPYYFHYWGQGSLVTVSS VL: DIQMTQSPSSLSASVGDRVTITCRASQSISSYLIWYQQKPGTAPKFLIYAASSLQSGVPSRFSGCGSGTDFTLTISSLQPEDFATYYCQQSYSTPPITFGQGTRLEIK

>  <recorded_metric>
% Blocking

>  <unit_spec>
%

>  <recorded_result>
29

$$$$
>  <binder>
H1M7800N (antibody, V domains shown, human variable regions, mouse IgG1 Fc) VH: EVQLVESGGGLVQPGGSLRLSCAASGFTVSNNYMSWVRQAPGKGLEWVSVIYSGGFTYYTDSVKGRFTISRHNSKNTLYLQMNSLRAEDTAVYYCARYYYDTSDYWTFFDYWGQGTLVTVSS VL: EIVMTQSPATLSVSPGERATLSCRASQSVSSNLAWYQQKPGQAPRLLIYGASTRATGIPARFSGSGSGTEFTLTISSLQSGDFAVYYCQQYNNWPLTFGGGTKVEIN

>  <recorded_metric>
% Blocking

>  <unit_spec>
%

>  <recorded_result>
100

$$$$
>  <binder>
H2aM7780N (antibody, V domains shown, human variable regions, mouse IgG2a Fc; also called H2M7780N) VH: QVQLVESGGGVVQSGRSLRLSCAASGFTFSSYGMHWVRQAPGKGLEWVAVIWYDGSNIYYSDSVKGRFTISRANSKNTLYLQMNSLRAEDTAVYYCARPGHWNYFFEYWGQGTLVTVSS VL: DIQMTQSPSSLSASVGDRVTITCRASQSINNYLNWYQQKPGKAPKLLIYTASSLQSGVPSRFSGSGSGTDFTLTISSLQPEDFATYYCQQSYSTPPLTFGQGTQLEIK

>  <recorded_metric>
% Blocking

>  <unit_spec>
%

>  <recorded_result>
114

$$$$
>  <binder>
H1M7799N (antibody, V domains shown, human variable regions, mouse IgG1 Fc) VH: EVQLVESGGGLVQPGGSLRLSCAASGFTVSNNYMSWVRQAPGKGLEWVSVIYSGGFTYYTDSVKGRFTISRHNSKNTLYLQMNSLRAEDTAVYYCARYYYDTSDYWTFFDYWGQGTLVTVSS VL: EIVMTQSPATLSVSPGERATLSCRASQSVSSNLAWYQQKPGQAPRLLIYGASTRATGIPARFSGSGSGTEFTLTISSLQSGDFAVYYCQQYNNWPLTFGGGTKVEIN

>  <recorded_metric>
% Blocking

>  <unit_spec>
%

>  <recorded_result>
100

$$$$

Now look at this entry.
Req: If you can, please state the reported % Blocking value of H2aM7796N (antibody, V domains shown, human variable regions, mouse IgG2a Fc; also called H2M7796N) VH: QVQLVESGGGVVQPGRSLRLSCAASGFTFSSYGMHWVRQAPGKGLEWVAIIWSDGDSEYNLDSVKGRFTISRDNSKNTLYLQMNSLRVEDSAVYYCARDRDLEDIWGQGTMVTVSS VL: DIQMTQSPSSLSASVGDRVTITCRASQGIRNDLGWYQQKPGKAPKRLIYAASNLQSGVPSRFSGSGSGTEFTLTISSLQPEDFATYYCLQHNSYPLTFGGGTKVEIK .
Resp: 129
